pIC50: −log10 of the molar value.
# merged literature set: pIC50 with UniProtKB P14902

>>> endpoint_value("CC1=C(c2ccccc2)C(CC(=O)c2ccc(-c3ccncc3)cc2)n2cncc21 (stereo not drawn)")
"> 6.30"
>>> endpoint_value("CC1=C(c2ccccc2)C(CC(=O)c2ccc(Oc3ccccc3)cc2)n2cncc21 (stereo not drawn)")
"< 6.30"
>>> endpoint_value("CC1=C(c2ccccc2)C(CC(=O)c2ccc(Br)cc2)n2cncc21 (stereo not drawn)")
"< 6.30"
>>> endpoint_value("Nc1oc2c(-c3ccccc3Cl)nccc2c1Nc1ccc(F)c(F)c1")
"> 6.70"
>>> endpoint_value("CC1=C(c2ccccc2)C(CC(O)C2CCN(C(=O)Cc3ccccc3F)CC2)n2cncc21 (stereo not drawn)")
"> 6.30"
>>> endpoint_value("CC(NC(=O)Nc1ccc(Cl)cc1)C1CCN(c2ccnc3ccc(F)cc23)CC1 (racemic)")
"> 5.70"

# input Look up pIC50 for this compound: Nc1oc2c(-c3cc(F)nc(F)c3)nccc2c1Nc1ccc(F)c(Cl)c1
# output > 6.70

# input Look up pIC50 for this compound: COc1ccccc1-c1nccc2c(Nc3ccc(F)c(Cl)c3)c(N)oc12
# output > 6.70

# input Look up pIC50 for this compound: O=C(Nc1ccc(Cl)cc1)N(Cc1cn2ccsc2n1)C1CCC1
# output < 4.52
